src = patent US5071835A

Biological target: human ribonucleotide reductase (hRR) (Homo sapiens, UniProt P23921)
Construct: Preparation of cell extract containing human ribonucleotide reductase (hRR); endogenous in cells; host or cells: HeLa cells (ATCC CCL 2.2); extract cleared with streptomycin sulphate, 50% ammonium sulphate cut, diafiltered
Sequence (P23921 1-792): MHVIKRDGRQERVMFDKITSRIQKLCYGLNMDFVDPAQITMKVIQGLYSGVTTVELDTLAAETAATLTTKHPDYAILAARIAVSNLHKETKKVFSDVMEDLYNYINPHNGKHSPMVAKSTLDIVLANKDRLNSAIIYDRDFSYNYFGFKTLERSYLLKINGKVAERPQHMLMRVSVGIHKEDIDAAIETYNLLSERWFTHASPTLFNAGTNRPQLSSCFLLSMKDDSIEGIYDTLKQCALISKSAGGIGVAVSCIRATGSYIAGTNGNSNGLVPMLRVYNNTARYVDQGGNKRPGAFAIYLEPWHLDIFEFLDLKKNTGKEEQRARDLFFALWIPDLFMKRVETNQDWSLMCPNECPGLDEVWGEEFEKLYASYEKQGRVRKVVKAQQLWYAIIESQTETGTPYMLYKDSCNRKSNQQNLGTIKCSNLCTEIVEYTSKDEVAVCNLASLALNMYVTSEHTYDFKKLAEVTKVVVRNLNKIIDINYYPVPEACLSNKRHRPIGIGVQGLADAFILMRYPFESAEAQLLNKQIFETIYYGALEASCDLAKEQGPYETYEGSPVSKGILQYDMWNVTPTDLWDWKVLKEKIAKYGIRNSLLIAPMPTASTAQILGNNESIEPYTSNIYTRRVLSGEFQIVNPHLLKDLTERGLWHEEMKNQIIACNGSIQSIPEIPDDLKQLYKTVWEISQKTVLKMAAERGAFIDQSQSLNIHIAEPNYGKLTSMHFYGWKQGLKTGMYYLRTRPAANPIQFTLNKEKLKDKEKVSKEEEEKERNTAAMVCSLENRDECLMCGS
Assay: Inhibition of Human Ribonucleotide Reductase Assay
Format: biochemical
Conditions: inhibition of human RR assay; list after the table; unit μM; read-out: IC50 (shown in parenthesis)
Non-standard residues stand in square brackets, D forms with d. Residues, ends and D or L forms follow the SMILES beside them. NMeD = CN[C@@H](CC(=O)O)C(=O)O
PARAMETER: IC50 (µM)
Give bare numbers, in µM.

These recorded examples may help you get a feel for the data.
CC(=O)N[C@@H](Cc1ccccc1)C(=O)N[C@H](C(=O)N[C@@H](CC(C)C)C(=O)N[C@H](CC(=O)O)C(=O)N[C@@H](C)C(=O)N[C@@H](CC(=O)O)C(=O)N[C@@H](Cc1ccccc1)C(=O)O)[C@@H](C)O [AcPhe-Thr-Leu-D-Asp-Ala-Asp-Phe-OH] (Ac-FTL[dD]ADF-OH); 200
CC(=O)N[C@@H](Cc1ccccc1)C(=O)N[C@H](C(=O)N[C@@H](CC(C)C)C(=O)N[C@@H](CC(=O)N(C)C)C(=O)N[C@@H](C)C(=O)N[C@@H](CC(=O)O)C(=O)N[C@@H](Cc1ccccc1)C(=O)O)[C@@H](C)O [AcPhe-Thr-Leu-Asp(NMe2)-Ala-Asp-Phe-OH] (Ac-FTLD(NMe2)ADF-OH); 58

Please find the next compound below.
Q) Requested read-out: IC50. Entry: CC(=O)N[C@@H](Cc1ccccc1)C(=O)N[C@H](C(=O)N[C@@H](CC(C)C)C(=O)N[C@@H](CC(=O)O)C(=O)N[C@@H](C)C(=O)N(C)[C@@H](CC(=O)O)C(=O)N[C@@H](Cc1ccccc1)C(=O)O)[C@@H](C)O [AcPhe-Thr-Leu-Asp-Ala-N-Me-Asp-Phe-OH] (Ac-FTLDA[NMeD]F-OH)
A) 46
